- target of assay: Nuclear receptor subfamily 5 group A member 2 (Homo sapiens) (UniProt O00482)
- Sequence (O00482 whole entry, looked up): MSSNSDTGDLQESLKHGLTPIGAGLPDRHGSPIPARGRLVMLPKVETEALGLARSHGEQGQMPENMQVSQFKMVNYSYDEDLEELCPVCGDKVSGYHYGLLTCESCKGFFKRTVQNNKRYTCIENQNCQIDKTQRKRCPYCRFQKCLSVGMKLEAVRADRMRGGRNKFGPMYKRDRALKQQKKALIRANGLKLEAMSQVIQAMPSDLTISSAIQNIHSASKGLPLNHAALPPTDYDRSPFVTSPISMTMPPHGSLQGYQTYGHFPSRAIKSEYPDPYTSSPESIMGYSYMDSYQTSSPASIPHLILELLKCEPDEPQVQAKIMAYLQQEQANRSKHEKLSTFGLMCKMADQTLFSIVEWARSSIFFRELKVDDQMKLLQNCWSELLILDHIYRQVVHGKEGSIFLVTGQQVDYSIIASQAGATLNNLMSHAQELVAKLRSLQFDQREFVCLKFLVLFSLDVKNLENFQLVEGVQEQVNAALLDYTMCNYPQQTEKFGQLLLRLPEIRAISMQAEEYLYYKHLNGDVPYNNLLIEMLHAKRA
- protocol text: LRH-1 (NR5A2) inverse agonists, retest, confirmation, cell-based, luminescence (AID 651613);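 note: HEK293T cells co-transfected with LRH-1 and StAR promoter luciferase reporter; 0% = vehicle wells and 100% = parental cells lacking receptor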
- condition info: cell-based LRH-1 luciferase reporter, inverse agonism; at 3.6 µM
Calls of active or inactive are those of the source. Cut-off read from the data, not from the text of the source: active = inhibition above about 42%; inactive = the rest.
Just give me one of these, please: 1 for active, -1 for inactive

molecule: Cn1nc(-c2ccccn2)nc2c(=O)n(C)c(=O)nc1-2
label: 1
//
molecule: Cc1cc2oc(=O)cc(-c3ccccc3)c2c(C)c1-c1ccc(C#N)cc1
label: 1
//
molecule: COc1cc(CNc2ccc(CNc3ncn[nH]3)cc2)ccc1OCC(=O)NC(C)(C)C
label: -1
//
molecule: O=C(COC(=O)Cn1[nH]c(=O)c2ccccc2c1=O)NNC(=O)c1ccc(Br)cc1
label: -1
//
molecule: COc1cc(C2c3cc4c(cc3C(OC3OC5COC(c6cccs6)OC5C(O)C3O)C3COC(=O)C23)OCO4)cc(OC)c1O (configuration not stated)
label: 1

Which outcome was entered for the molecule O=C(NN=Cc1c(O)ccc2ccccc12)c1ccncc1 in this test?
1

// outcome(item) with item = COc1ccc(N=C(NN)c2ccc3ccccc3n2)cc1
-1

Check the results log: what was the call for CCn1cc(/C=C/c2cc[n+](C)cc2)c2ccccc21 ?
1
